# Tested on: Rel hydrolase (HD)
# experiment: Inhibition of Rel hydrolase activity: decrease of radioactive (p)ppGpp spot on TLC
# Format: biochemical
# condition-summary: radioactive (p)ppGpp incubated with enzyme, with vs without compound
measured-parameter: HD (inhibition of the hydrolase activity)

Recorded HD (inhibition of the hydrolase activity), per entry:
{"compound": "Fc1cccc(-c2nnn(Cc3nnn[nH]3)n2)c1", "val": "Yes"}
{"compound": "COc1ccc2[nH]cc(CCNC(=O)c3nccnc3C(=O)O)c2c1", "val": "Yes"}
{"compound": "O=C(O)C[C@H](NC(=O)COc1ccc2nc3n(c(=O)c2c1)CCC3)C(=O)O", "val": "yes"}
{"compound": "Cc1nc2cc(CC(=O)N[C@@H]3COCC[C@@H]3OCC(=O)O)ccc2[nH]1", "val": "Yes"}
{"compound": "O=C(O)CNS(=O)(=O)c1ccc2c(c1)NC(=O)CS2", "val": "Yes"}

Each of the following entries comes with a recorded value; kindly state HD (inhibition of the hydrolase activity) for each.
1. O=C1Nc2ccccc2/C1=N\c1ccc(O)c([N+](=O)[O-])c1
2. O=[N+]([O-])c1cccc(CN2CCN(S(=O)(=O)c3ccc4ccccc4c3)CC2)c1
3. O=c1oc2cc(OCc3nnn[nH]3)ccc2cc1-c1ccc(Cl)cc1
4. Cc1cc(CCc2nnn[nH]2)c2c(C)c(Cc3ccccc3)c(=O)oc2c1
5. Cc1c(Cc2ccccc2)c(=O)oc2cc(OCc3nnn[nH]3)ccc12
6. Cc1c(Cc2ccccc2)c(=O)oc2cc(OCC(=O)O)ccc12

Resp:
1: No; 2: Yes; 3: Yes; 4: Yes; 5: Yes; 6: No
